Reported IC50 values for a set of compounds
test system: 252836-082-R-J2-PDC tumor spheroids, viability; test: Anticancer human tumor 252836-082-R-J2-PDC patient-derived head and neck squamous cell carcinoma cell line growth inhibition [PI3K]; details: curve of first compound; second compound 3.16 µM; spheroids with HUVEC and MSC

## Input Given the compound CNC(=O)c1ccc(N2C(=S)N(c3ccc(C#N)c(C(F)(F)F)c3)C(=O)C2(C)C)cc1F + Cc1nc(NC(=O)N2CCCC2C(N)=O)sc1-c1ccnc(C(C)(C)C(F)(F)F)c1 , write its reported IC50.
## Output > 10000 nM

## Input State its IC50: CC(=O)c1c(C)c2cnc(Nc3ccc(N4CCNCC4)cn3)nc2n(C2CCCC2)c1=O + CC(Nc1ncnc2nc[nH]c12)c1cc2cccc(Cl)c2c(=O)n1-c1ccccc1
## Output > 100 nM

## Input Please give the documented IC50 of CC1(C)CCC(CN2CCN(c3ccc(C(=O)NS(=O)(=O)c4ccc(NCC5CCOCC5)c([N+](=O)[O-])c4)c(Oc4cnc5[nH]ccc5c4)c3)CC2)=C(c2ccc(Cl)cc2)C1 + Cc1nc(NC(=O)N2CCCC2C(N)=O)sc1-c1ccnc(C(C)(C)C(F)(F)F)c1
## Output 2740 nM

## Input Please report the measured IC50 for CC(Cn1ccc(-c2ccc(C#N)c(Cl)c2)n1)NC(=O)c1cc(C(C)O)[nH]n1 (stereo not given) + Cc1nc(NC(=O)N2CCCC2C(N)=O)sc1-c1ccnc(C(C)(C)C(F)(F)F)c1
## Output < 31.6 nM

## Input Query IC50 for CC(=O)c1c(C)c2cnc(Nc3ccc(N4CCNCC4)cn3)nc2n(C2CCCC2)c1=O + Cc1nc(NC(=O)N2CCCC2C(N)=O)sc1-c1ccnc(C(C)(C)C(F)(F)F)c1
## Output < 0.316 nM

----------
tested on: 252836-082-R-J2-PDC tumor spheroids, viability; assay: Anticancer human tumor 252836-082-R-J2-PDC cell line growth inhibition [PI3K]; conditions: second compound 0.316 µM; first compound 0.3 µM; stronger effect = lower value; spheroids with HUVEC and MSC;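 also: spheroids exposed to agents for seven days before readout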;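 as to viability, T/C: percent of vehicle DMSO control viability so 100% = untreated growth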
Listing of entries alongside the reported viability, T/C.
# number only, unit % dropped from output

## Input State its viability, T/C for this compound: Cn1cnc2c(F)c(Nc3ccc(Br)cc3Cl)c(C(=O)NOCCO)cc21 + CC(Nc1ccc2c(c1)OCCn1cc(N3C(=O)OCC3C(F)F)nc1-2)C(N)=O
## Output 46.3

## Input Dear colleague, please send me the reported viability, T/C for Cn1cnc2c(F)c(Nc3ccc(Br)cc3Cl)c(C(=O)NOCCO)cc21 + Cc1nc(NC(=O)N2CCCC2C(N)=O)sc1-c1ccnc(C(C)(C)C(F)(F)F)c1 when you can.
## Output 68.3

## Input // Input: Cn1cnc2c(F)c(Nc3ccc(Br)cc3Cl)c(C(=O)NOCCO)cc21 + COc1c(OCCCN2CCOCC2)ccc2c3n(c(=NC(=O)c4cnc(N)nc4)nc12)CCN3 . Output its viability, T/C only.
## Output 7.79

## Input Supply measured viability, T/C of Cn1cnc2c(F)c(Nc3ccc(Br)cc3Cl)c(C(=O)NOCCO)cc21 + CC(Nc1ncnc2nc[nH]c12)c1cc2cccc(Cl)c2c(=O)n1-c1ccccc1 in your reply.
## Output 79.3

----------
tested on: 252836-082-R-J2-PDC tumor spheroids, viability; experiment: Anticancer human tumor 252836-082-R-J2-PDC cell line growth inhibition [PI3K]; conditions: second compound 0.316 µM; first compound 10 µM; stronger effect = lower value; spheroids with HUVEC and MSC;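 also: spheroids exposed to agents for seven days before readout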;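 as to viability, T/C: percent of vehicle DMSO control viability so 100% = untreated growth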
measured.property: viability, T/C (%)
Give the number; % is assumed, so skip it.

| molecule | viability, T/C, % |
| --- | --- |
| CC(C)NCC(C(=O)N1CCN(c2ncnc3c2C(C)CC3O)CC1)c1ccc(Cl)cc1 (stereo not drawn) + Cc1nc(NC(=O)N2CCCC2C(N)=O)sc1-c1ccnc(C(C)(C)C(F)(F)F)c1 | 21 |
| C[C@@H](NC(=O)c1ncnc(N)c1Cl)c1ncc(C(=O)Nc2cc(C(F)(F)F)c(Cl)cn2)s1 + Cc1nc(NC(=O)N2CCCC2C(N)=O)sc1-c1ccnc(C(C)(C)C(F)(F)F)c1 | 69.7 |

Next molecule, viability, T/C to be filled in.
## Input Return the recorded viability, T/C value; entry: Cn1nccc1Nc1nccc(-c2ccn(C(CO)c3ccc(Cl)c(F)c3)c(=O)c2)n1 (stereo not drawn) + CC(Nc1ncnc2nc[nH]c12)c1cc2cccc(Cl)c2c(=O)n1-c1ccccc1
## Output 76
